Data provenance is patent US20150132764A1.

SYSTEM NAME: surface of J774 A1 macrophages (unidentified BAG3 binding partner) (murine)
METHOD: flow cytometry competition; 14 nM FITC-rBAG3 on J774 A.1 cells with 625 nM peptide
Measured % of positive cells by item
State the answer as a number, implicitly in %.

Exercise: Which % of positive cells value is on record for DRDPLPPGWEIKIDPQ [BAG3 peptide 1] ?
Key: 0.18

Exercise: Query: % of positive cells; subject: SSPKSVATEERAAPS [BAG3 peptide 2]
Key: 1.21

Exercise: What value of % of positive cells has been reported for the following binder? DKGKKNAGNAEDPHT [BAG3 peptide 3]
Key: 5.86

Exercise: For the binder shown here, NPSSMTDTPGNPAAP [BAG3 peptide 4] , give the reported % of positive cells.
Key: 0.68
